System: Human alphaherpesvirus 1
Type: functional, organism-based
Condition context: Human alphaherpesvirus 1, KOS, HEL
Outcome measure: pEC50
Numbers only, as −log10 of the molar value.

O=c1[nH]c(=O)n([C@@H]2CN[C@H](CO)[C@@H](O)C2)cc1I    4.47

Would you mind giving pEC50 for every compound in the list below?
1. Nc1ccn(C[C@@H](CO)OCP(=O)(O)O)c(=O)n1
2. Nc1nc2c(ncn2COCCO)c(=O)[nH]1

1. 6.00
2. 3.90

----------
Procedure text: Cytotoxicity against HEL cells assessed as alteration of cell morphology by microscopic analysis
Assay type: toxicity, cell-based
Condition context: human, HEL cells
Outcome measure: MCC

Consider the following illustrative entries.
Nc1nc2c(ncn2COCCO)c(=O)[nH]1 [ACYCLOVIR]    > 250 µM
Nc1ccn(C[C@@H](CO)OCP(=O)(O)O)c(=O)n1 [CIDOFOVIR]    > 250 µM
O=c1[nH]c(=O)n([C@H]2C[C@H](O)[C@@H](CO)O2)cc1/C=C/Br [BRIVUDINE]    > 250 µM

Would you mind giving MCC for every molecule in the list below?
1. Nc1nc2c(ncn2COC(CO)CO)c(=O)[nH]1 [GANCICLOVIR]
2. O=c1[nH]c(=O)n([C@@H]2CN[C@H](CO)[C@@H](O)C2)cc1I

1. > 100 µM
2. > 100 µM

meta.source: ChEMBL document CHEMBL5108006
